- test-details: Pharmacokinetic study in mice (plasma, brain, CSF)
- Assay type: in vivo, mouse
- conditions: male, C57BL/6, mouse, CSF, intravenous 5 mg/Kg single dose

compound	AUC(0-t) (ng·h/mL)
CNc1nc(Nc2ccc(C(=O)N3CCN(C[C@H]4CC[C@H](CSC(C)(C)[C@H](NC(=O)C5(F)CC5)C(=O)N5C[C@H](O)CC5C(=O)NCc5ccc(-c6scnc6C)cc5)CC4)CC3)cc2OC)ncc1Cl (stereo partly shown) [XL01126]	107

* * *

- Tested on: Rab10 pThr73
- test-details: Rab10 Thr73 dephosphorylation (immunoblot) in LRRK2^G2019S MEFs
- Format: cell-based, mouse
- conditions: Mus musculus, 1 μM/4 h treatment; read-out: pRab10 inhibited in LRRK2^G2019S MEFs
Entries and their inhibition at 1 µM
measured-attribute: inhibition at 1 µM

compound	experimental-result
CNc1nc(Nc2ccc(C(=O)N3CCN(C[C@H]4CC[C@@H](CSC(C)(C)[C@H](NC(=O)C5(F)CC5)C(=O)N5C[C@H](O)CC5C(=O)NCc5ccc(-c6scnc6C)cc5F)CC4)CC3)cc2OC)ncc1Cl (stereo partly drawn)	10 to 100%
CNc1nc(Nc2ccc(C(=O)N3CCN(C[C@H]4CC[C@H](CSC(C)(C)[C@H](NC(=O)C5(F)CC5)C(=O)N5C[C@H](O)CC5C(=O)NCc5ccc(-c6scnc6C)cc5C)CC4)CC3)cc2OC)ncc1Cl (stereo partly drawn)	10 to 100%
CNc1nc(Nc2ccc(C(=O)N3CCN(CCCSC(C)(C)[C@H](NC(=O)C4(F)CC4)C(=O)N4C[C@H](O)C[C@H]4C(=O)NCc4ccc(-c5scnc5C)c(F)c4)CC3)cc2OC)ncc1Cl	20 to 100%

Reference for the values: patent US20260001875A1
